All values here come from patent US20230096766A1.

Experiment: in vitro
Conditions: human, Caco-2, Caco-2 (cm/sec)
*1 amine or outer side, *2 acyl side, *3 side chain or, on linkers, in order; H or OH if unused. Where a SMILES comes first, the peptide text is derived from it. Bridges are numbered along the chain shown (N, C = ends). [ ]: non-standard residue; d: D form. The star is where a group is joined. ξ: configuration not given here. NMePhe(3-Cl) = CN[C@@H](Cc1cccc(Cl)c1)C(=O)O; NMeF = CN[C@@H](Cc1ccccc1)C(=O)O; NMeGABA = CN(CCCC(=O)[*:2])[*:1]; NMeI = CC[C@H](C)[C@H](NC)C(=O)O; NMeL = CN[C@@H](CC(C)C)C(=O)O; Butyl(3R-OH) = C[C@@H](O)CC*; Propyl(2R-OH) = C[C@@H](O)C*; NMeV = CN[C@H](C(=O)O)C(C)C; Piperidide = C1CCN(*)CC1; ξV = CC(C)C(N)C(=O)O; Sar = CNCC(=O)O
MEASURED_METRIC: Papp (×10⁻⁶ cm/s)
Please state the figure in ×10⁻⁶ cm/s; there is no need to write the unit.

COMPOUND | UNIT_TAG | Papp
CC[C@H](C)[C@H]1C(=O)N[C@@H]([C@@H](C)O)C(=O)N(C)CC(=O)N(C)[C@@H](CC(C)C)C(=O)N[C@H](C(=O)N2CCCCC2)CC(=O)N(C)[C@@H](C(C)C)C(=O)N[C@@H](CC(C)C)C(=O)N(C)[C@@H](CC(C)C)C(=O)N(C)[C@@H](Cc2ccccc2)C(=O)N[C@@H](COC[C@@H](C)O)C(=O)N(C)[C@@H](Cc2ccccc2)C(=O)N1C [AP76] ([NMeV]L[NMeL][NMeF]S(Propyl(2R-OH))[NMeF][NMeI]T[Sar][NMeL]D-Piperidide; lactam N-11) | ×10⁻⁶ cm/s | 0.84

Continue with the compound presented below.
In: Any idea what its Papp is? The compound is CC(C)C[C@H]1C(=O)NC(C(C)C)C(=O)N(C)[C@@H](Cc2ccccc2)C(=O)N(C)[C@@H](Cc2cccc(Cl)c2)C(=O)N[C@@H](COCC[C@@H](C)O)C(=O)N(C)[C@@H](CC(C)C)C(=O)N[C@@H]([C@@H](C)O)C(=O)N(C)[C@@H](CC(C)C)C(=O)N(C)[C@@H](CC(C)C)C(=O)N[C@H](C(=O)N2CCCCC2)CC(=O)N(C)CCCC(=O)N1C (stereo partly drawn) [AP111] ([NMeGABA][NMeL][ξV][NMeF][NMePhe(3-Cl)]S(Butyl(3R-OH))[NMeL]T[NMeL][NMeL]D-Piperidide; lactam N-11)
Out: 0.13
